Data provenance is ChEMBL document CHEMBL5303304.

- Tested on: HEK-293T
- experiment_notes: Incucyte cell viability with HEK293T; further: unitless GR value; below 1 slowed growth and below 0 cell loss
- Type: toxicity, cell-based
- condition_set: human, 6 h, 10 µM, compound concentration 10 uM, replicate number 2
reported_endpoint: Growth Rate

molecule	reported_value
Cn1nccc1-c1ccc(Sc2cccc(C3(C(N)=O)CCOCC3)c2)cc1 [PF-4191834]	-0.28
COc1cc([N+](=O)[O-])ccc1NC(=O)c1ccccc1O	-0.12
O=C(NNC(=O)c1ccc(CNS(=O)(=O)c2ccc(F)c(Cl)c2)cc1)c1ccccc1	0.59
O=C(N[C@H]1CN2CCC1CC2)c1ccc(Cl)cc1 [PNU-282987]	0.88
CSc1nc2c(c(=O)n(C)c(=O)n2C)n1C	-0.14
Cc1cc(Cn2c(N3CC4(CNC4)C3)nc3c(N4CCN(C)CC4)cc(Cl)cc32)cc(C)c1F	-1
O=C(Nc1ccc(Cl)c(-c2ccccn2)c1)c1cccc(COc2ccc(Br)cc2CNCCO)c1.O=CO	-0.56
O=C(Nc1ccc(Cl)nc1)c1ccc(Cl)cc1	0.16
COC(=O)c1sccc1S(=O)(=O)Nc1ccc(Nc2ccccc2)cc1OC	0.93
Oc1cccc(Nc2ccnc3[nH]c4ccccc4c23)c1	-0.96
